# Tested on: BT-549
# ASSAY_TEXT: NCI tumour cell line growth inhibition, 48 h
Calls of active or inactive are those of the source. Cut-off read from the data, not from the text of the source: active = GI50 up to about 1.1 µM and inactive = higher.
Pick one and only one: active, inactive

Answered cases to consult:
>>> class("CC(C)OC(=O)NNc1c(Cl)cc(Cl)cc1Cl")
"inactive"
>>> class("COc1cc(-c2c3c(cc4c2OCO4)[C@@H](Nc2ccc(-c4ccc(-c5ccc(N[C@@H]6c7cc8c(cc7C(c7cc(OC)c(O)c(OC)c7)[C@H]7C(=O)OC[C@H]67)OCO8)cc5)cc4)cc2)[C@H]2COC(=O)[C@@H]2C3)cc(OC)c1O (stereo partly drawn)")
"inactive"
>>> class("CCOC(=O)CCC(NC(=O)c1ccc(Oc2nc3ccccc3nc2C(=O)OCC)cc1)C(=O)OCC (stereo not drawn)")
"inactive"
>>> class("COC1C(O)CC(OC2CC(Oc3cc4cc5c(c(O)c4c(O)c3C)C(=O)[C@@H](OC3CC(OC4CC(OC6CC(C)(O)C(OC(C)=O)C(C)O6)C(O)C(C)O4)C(O)C(C)O3)[C@H]([C@H](OC)C(=O)[C@@H](O)[C@@H](C)O)C5)OC(C)C2OC(C)=O)OC1C (stereo partly drawn)")
"active"
>>> class("CCOc1cc(CC[N+](C)(C)C)c2c(ccc3ccc(OC)c(OC)c32)c1OC")
"inactive"

Now, please, on to the next compound.
Inquiry: // return assay outcome for O=C(c1ccccn1)c1nnn2ccccc12
Reply text: inactive

* * *

# Tested on: OVCAR-8
# ASSAY_TEXT: NCI tumour cell line growth inhibition, 48 h
Activity calls are given as the source filed them. Cut-off read from the data, not from the text of the source: active = GI50 up to about 1.1 µM and inactive = higher.
REPORTED_PROPERTY: GI50

Consider the following illustrative entries.
>>> result("COC(=O)CC(=O)NCC1=CCC(=O)CC1")
"> 100 µM (inactive)"
>>> result("COc1cc(S(=O)(=O)Nc2ccc(-c3csc(N)n3)cc2)ccc1Cl")
"22.3 µM (inactive)"
>>> result("O=c1ccc(=O)n(-c2ccccc2)[nH]1")
"> 100 µM (inactive)"

Inquiry: Return GI50 measured with OVCAR-8 given this compound: COc1ccc(NC(=O)/C(=N/NC(N)=S)C2C(=O)NC(=S)NC2=O)c(OC)c1
Reply text: > 100 µM (inactive)

Inquiry: Moving on to the next compound: C=CCOc1ccccc1/N=N/C(C#N)=N\Nc1ccccc1OCC=C
Reply text: > 100 µM (inactive)

* * *

# Test system: SK-MEL-5
# ASSAY_TEXT: NCI tumour cell line growth inhibition, 48 h
Activity calls are given as the source filed them. Rule as the data show it: active = GI50 up to about 1.1 µM and inactive = higher.
Pick one and only one: active, inactive

>>> class("COC(=N)CCCl")
"inactive"
>>> class("CO/C(N)=C(C#N)/N=C/c1cccs1")
"inactive"
>>> class("CC(C(=O)c1ccc(Cl)cc1)/C(=N/NC(=O)NN)C(=O)Nc1cccc(C(F)(F)F)c1 (stereo unspecified)")
"inactive"
>>> class("CCCCCCCCCCCCCC(=O)OCC1OC(=O)C(O)C1O (stereo unspecified)")
"inactive"
>>> class("Cc1[nH]c(-c2ccccc2)c(O)c1C(=O)OC12CC3CC(CC(C3)C1)C2")
"inactive"

Inquiry: // return assay outcome for CC12CCC(C(Br)(Br)C1=O)C2(C)C (stereo unspecified)
Reply text: active

Inquiry: Moving on to the next compound: COc1ccc(CCCN2c3ccccc3Sc3ccccc32)cc1
Reply text: inactive

Inquiry: Moving on to the next compound: N#CC(N)(C(=O)C(=O)NCCCNC(=O)C(=O)C(N)(C#N)c1ccc(Cl)cc1)c1ccc(Cl)cc1 (stereo unspecified)
Reply text: inactive

Inquiry: Moving on to the next compound: CC(C)OC(=O)NNc1c(Cl)cc(Cl)cc1Cl
Reply text: inactive

Inquiry: Moving on to the next compound: Clc1ccc(OCc2nn3c(CCc4nnc5sc(COc6ccc(Cl)cc6)nn45)nnc3s2)cc1
Reply text: inactive

Inquiry: Moving on to the next compound: Cc1ccc([N+](=O)[O-])cc1NC(=O)c1cccc([N+](=O)[O-])c1O
Reply text: inactive

* * *

# Test system: SF-295
# ASSAY_TEXT: NCI tumour cell line growth inhibition, 48 h
Calls of active or inactive are those of the source. No stated cut-off is given here; in the data, active = GI50 up to about 1.1 µM and inactive = higher.
REPORTED_PROPERTY: GI50

>>> result("CC1C(c2ccccc2O)c2cc3c(cc2OC1N1CCCC1)OCO3 (configuration not stated)")
"27.2 µM (inactive)"
>>> result("O=C(O)CCSC(=S)Nc1cccc(F)c1")
"28.7 µM (inactive)"
>>> result("N#Cc1ccc(-c2nc3c(N)ncnc3o2)cc1")
"> 100 µM (inactive)"
>>> result("CC1CC2CCCC(=O)C2=C(O)O1 (configuration not stated)")
"> 100 µM (inactive)"
>>> result("O=C1CSC2=NC3=C(COC/C3=C\\c3ccc(Br)cc3)C(c3ccc(Br)cc3)N12 (configuration not stated)")
"55.7 µM (inactive)"
>>> result("C[N+]1=c2c3cccc4cccc(c(=O)n2CC1)c43")
"21.3 µM (inactive)"
>>> result("CC1=CC2c3cccc4[nH]cc(c34)CC2N(C)C1 (configuration not stated)")
"53.3 µM (inactive)"
>>> result("CCCCCCN1C(=O)CC(=O)N(CCCCCC)S1(=O)=O")
"18.1 µM (inactive)"

Proceeding to the next molecule to report its GI50.
Inquiry: Return GI50 measured with SF-295 given this molecule: CCOC(=O)CCC(NC(=O)c1ccc(Oc2nc3ccccc3nc2C(=O)OCC)cc1)C(=O)OCC (configuration not stated)
Reply text: > 100 µM (inactive)

* * *

# System: SNB-75
# ASSAY_TEXT: NCI tumour cell line growth inhibition, 48 h
Activity calls are given as the source filed them. No stated cut-off is given here; in the data, active = GI50 up to about 1.1 µM and inactive = higher.
Pick one and only one: 1.0 for active, 0.0 for inactive

>>> class("CCOC(=O)C(=O)N1C(C)=C(C(=O)OCC)CC(C(=O)OCC)=C1C")
0.0

Inquiry: // return assay outcome for COc1cccc2nc3cc(C)c(C)cc3nc12
Reply text: 0.0

Inquiry: Moving on to the next compound: CCOC(=O)/C(C#N)=N\Nc1ccc(-n2c(C)nc3ccccc3c2=O)cc1
Reply text: 0.0

Inquiry: Moving on to the next compound: O=S(=O)(O)c1cc2ccc1/C=C\c1ccc(cc1S(=O)(=O)O)/N=N\c1ccc(c(S(=O)(=O)O)c1)/C=C\c1ccc(cc1S(=O)(=O)O)/N=N\2
Reply text: 0.0

Inquiry: Moving on to the next compound: NC(=O)NC(=O)C1CCC(=O)N1S(=O)(=O)c1ccc(Cl)cc1 (stereo not drawn)
Reply text: 0.0

Inquiry: Moving on to the next compound: CCNC1=C(NC(=O)c2ccc(F)cc2)C(=O)c2ccccc2C1=O
Reply text: 0.0

Inquiry: Moving on to the next compound: O=c1[nH]nc(-c2ccccc2)n1/N=C/c1cccc([N+](=O)[O-])c1
Reply text: 0.0

Inquiry: Moving on to the next compound: CC(=O)c1ccc(Nc2c3c(nc4ccccc24)CCCC3)cc1
Reply text: 0.0

Inquiry: Moving on to the next compound: CCOCC(=O)N[C@H]1CCc2cc(OC)c(OC)c(OC)c2-c2ccc(OC)c(=O)cc21
Reply text: 1.0

Inquiry: Moving on to the next compound: O=C1c2ccccc2C(=O)[C@@]23O[C@@]12C1(Oc2cccc4cccc(c24)O1)[C@@H]1O[C@@H]1[C@@H]3O
Reply text: 0.0

Inquiry: Moving on to the next compound: [O-][S+](Cc1ccccn1)c1nc2ccccc2nc1-c1ccccc1 (stereo not drawn)
Reply text: 0.0

Inquiry: Moving on to the next compound: Cc1ccccc1OCC(COC(=O)Nc1ccccc1)OC(=O)Nc1ccccc1 (stereo not drawn)
Reply text: 0.0

* * *

# System: SF-295
# ASSAY_TEXT: NCI tumour cell line growth inhibition, 48 h
Calls of active or inactive are those of the source. No stated cut-off is given here; in the data, active = GI50 up to about 1.1 µM and inactive = higher.
REPORTED_PROPERTY: GI50

Consider the following illustrative entries.
>>> result("CCOC(=O)C(NC(=O)OCc1ccccc1)C(=O)O (configuration not stated)")
"> 100 µM (inactive)"
>>> result("CCNC(=O)/C=C/CCC#Cc1ccc(-c2ccc(-c3cccs3)s2)s1")
"> 100 µM (inactive)"
>>> result("CC(=O)NC(CCCN)C(=O)NCc1ccccc1 (configuration not stated)")
"> 100 µM (inactive)"
>>> result("COc1cccc2nc3cc(C)c(C)cc3nc12")
"> 100 µM (inactive)"
>>> result("O=C1/C(=C/c2ccncc2)C(n2cccc2)c2c(Br)sc(Br)c21 (configuration not stated)")
"13.3 µM (inactive)"

Inquiry: Return GI50 measured with SF-295 given this molecule: CC1CCCc2c(C#N)c(N)nc(-c3ccc(Cl)cc3)c21 (configuration not stated)
Reply text: 18.3 µM (inactive)

Inquiry: Moving on to the next molecule: Nc1nnc2nc(CC(=O)/C=C/c3ccccc3)c(=O)[nH]n12
Reply text: > 100 µM (inactive)

Inquiry: Moving on to the next molecule: Cc1ccc(NC(=O)CSc2nc(C)nc3c2sc(=S)n3-c2ccccc2)cc1
Reply text: 5 µM (inactive)
